study.target: T1, human TGFβ2 (human, UniProt P61812 303-414)
T1 construct: also called TGFβ2 homodimer
T1 sequence: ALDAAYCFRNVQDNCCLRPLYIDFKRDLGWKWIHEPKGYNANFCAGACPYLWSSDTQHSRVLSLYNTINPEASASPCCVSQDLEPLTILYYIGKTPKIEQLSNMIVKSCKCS
protocol.description: Biacore off-rate vs wt GC1008, 50 nM
// kd var/kd wt lookup, one value per entry
Reply with just the number.

I54M (antibody, V domains shown, GC1008 IgG4 variant) VH: QVQLVQSGAEVKKPGSSVKVSCKASGYTFSSNVISWVRQAPGQGLEWMGGVIPMVDIANYAQRFKGRVTITADESTSTTYMELSSLRSEDTAVYYCASTLGLVLDAMDYWGQGTLVTVSS VL: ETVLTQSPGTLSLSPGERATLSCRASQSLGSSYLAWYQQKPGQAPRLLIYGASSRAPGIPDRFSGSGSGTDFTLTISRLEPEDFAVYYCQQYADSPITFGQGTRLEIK :: 1.3

Turning now to a further binder:
Consider the binder shown here: I54H (antibody, V domains shown, GC1008 IgG4 variant) VH: QVQLVQSGAEVKKPGSSVKVSCKASGYTFSSNVISWVRQAPGQGLEWMGGVIPHVDIANYAQRFKGRVTITADESTSTTYMELSSLRSEDTAVYYCASTLGLVLDAMDYWGQGTLVTVSS VL: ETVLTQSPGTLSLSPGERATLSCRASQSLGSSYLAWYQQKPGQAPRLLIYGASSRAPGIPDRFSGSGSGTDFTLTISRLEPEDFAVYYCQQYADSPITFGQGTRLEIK What is its recorded kd var/kd wt?
1.4

src = patent US20170342144A1
